Molecular target: SOS1 nucleotide exchange of KRAS (catalytic domain of SOS1, residues 564-1049; wild-type KRAS) (Homo sapiens, UniProt Q07889)
Construct: tagless catalytic domain of SOS1 (residues 564-1049)
Assay: Mode of Action Assay: Inhibition of SOS1 Nucleotide Exchange Activity (TR-FRET)
Details: TR-FRET signal
Structures can show the parent of a compound that is named as a salt.
valueKind: IC50

>  <molecule>
C[C@@H](Nc1ncnc2cc(C3=CCNCC3)sc12)c1cc(N)cc(C(F)(F)F)c1 [Example 49]

>  <testValue>
> 1 µM

$$$$
>  <molecule>
CC(=O)N1CCN(c2cc3c(N[C@H](C)c4cc(N)cc(C(F)(F)F)c4)ncnn3c2)CC1 [Example 43]

>  <testValue>
> 1 µM

$$$$
>  <molecule>
C[C@@H](Nc1nc(Cl)cn2cc(C(=O)N3CCOCC3)nc12)c1cc(N)cc(C(F)(F)F)c1 [Example 29]

>  <testValue>
> 1 µM

$$$$
>  <molecule>
Cc1nc(N[C@H](C)c2cc(N)cc(C(F)(F)F)c2)c2cc(C(=O)N3CCOCC3)cn2n1 [Example 41]

>  <testValue>
< 1 µM

$$$$
>  <molecule>
C[C@@H](Nc1nccc2nc(C(=O)N3CCNCC3)cn12)c1cccc(C(F)F)c1F [Example 85, hydrochloride]

>  <testValue>
< 1 µM

$$$$
>  <molecule>
C[C@@H](Nc1ncnc2[nH]c(C(=O)N3CCOCC3)nc12)c1cc(N)cc(C(F)(F)F)c1 [Example 57]

>  <testValue>
< 1 µM

$$$$
>  <molecule>
Cc1nc(N[C@H](C)c2cc(N)cc(C(F)(F)F)c2)c2cc(C(=O)N3CC(O)C3)cn2n1 [Example 33]

>  <testValue>
< 1 µM

$$$$
>  <molecule>
C[C@@H](Nc1ncnn2cc(C(=O)N3CCN(C)CC3)cc12)c1cccc(C(F)F)c1F [Example 69]

>  <testValue>
< 1 µM

$$$$

* * *

Target: SOS1 catalytic domain (residues 564-1049) (Homo sapiens)
Sequence (Q07889 564-1049): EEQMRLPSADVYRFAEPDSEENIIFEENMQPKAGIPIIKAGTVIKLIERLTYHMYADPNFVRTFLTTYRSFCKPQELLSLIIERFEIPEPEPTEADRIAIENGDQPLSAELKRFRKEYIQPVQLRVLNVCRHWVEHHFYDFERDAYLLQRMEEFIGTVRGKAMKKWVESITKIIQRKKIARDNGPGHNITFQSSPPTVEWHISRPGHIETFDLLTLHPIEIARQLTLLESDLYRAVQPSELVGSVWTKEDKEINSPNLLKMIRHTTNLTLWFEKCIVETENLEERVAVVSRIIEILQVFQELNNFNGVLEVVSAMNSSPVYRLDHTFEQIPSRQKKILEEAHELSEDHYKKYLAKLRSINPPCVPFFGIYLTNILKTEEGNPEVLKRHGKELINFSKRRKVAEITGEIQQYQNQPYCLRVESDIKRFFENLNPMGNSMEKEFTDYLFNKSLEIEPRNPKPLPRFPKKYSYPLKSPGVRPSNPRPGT
The entries below come with measured Kd values attached.
valueKind: Kd

>  <smilesInput>
C[C@@H](Nc1ncnn2cc(C(=O)N3CC4(COC4)C3)cc12)c1cccc(C(F)F)c1F

>  <testValue>
≤ 400 nM

$$$$
>  <smilesInput>
C[C@@H](Nc1nc(Cl)nc2[nH]c(C(=O)N3CCOCC3)nc12)c1cccc(C(F)(F)CO)c1

>  <testValue>
≤ 400 nM

$$$$
>  <smilesInput>
C[C@@H](Nc1nccc2nc(C(=O)N3CC4(C3)CN(C3CC3)C4)cn12)c1cccc(C(F)F)c1F

>  <testValue>
≤ 400 nM

$$$$
>  <smilesInput>
Cc1nc(N[C@H](C)c2cc(N)cc(C(F)(F)F)c2)c2cc(C(=O)N3CCN(C)CC3)n(C)c2n1

>  <testValue>
> 400 nM

$$$$
>  <smilesInput>
C[C@@H](Nc1nccc2nc(C(=O)N3CC4(CN(CCF)C4)C3)cn12)c1cccc(C(F)F)c1F

>  <testValue>
≤ 400 nM

$$$$
>  <smilesInput>
C[C@@H](Nc1nc(Cl)nn2cc(C(=O)N3CC4(CN(C)C4)C3)cc12)c1cccc(C(F)(F)F)c1

>  <testValue>
≤ 400 nM

$$$$
>  <smilesInput>
C[C@@H](Nc1ncnc2[nH]c(C(=O)N3CCOCC3)nc12)c1cc(N)cc(C(F)(F)F)c1

>  <testValue>
≤ 400 nM

$$$$
